- system-tested: UniProt A5H660
- Sequence (whole entry): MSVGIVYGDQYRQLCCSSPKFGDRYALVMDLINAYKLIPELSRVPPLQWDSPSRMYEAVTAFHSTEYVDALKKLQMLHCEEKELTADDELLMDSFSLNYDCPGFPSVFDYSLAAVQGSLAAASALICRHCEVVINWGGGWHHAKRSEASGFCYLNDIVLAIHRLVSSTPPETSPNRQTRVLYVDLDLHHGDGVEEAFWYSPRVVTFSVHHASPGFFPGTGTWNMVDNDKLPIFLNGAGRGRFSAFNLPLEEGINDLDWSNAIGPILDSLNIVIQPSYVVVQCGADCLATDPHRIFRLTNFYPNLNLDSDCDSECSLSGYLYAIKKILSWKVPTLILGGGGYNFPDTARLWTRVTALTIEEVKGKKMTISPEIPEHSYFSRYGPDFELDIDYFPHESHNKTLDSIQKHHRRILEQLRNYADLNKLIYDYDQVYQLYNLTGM
- assay: Inhibition of Schistosoma mansoni KDAC8 at 30 uM using (FAM)-labeled peptide as substrate after 60 mins by microfluidic assay
Active and inactive are the calls of the source. No cut-off for these calls is given here.
reported-metric: inhibition

Examples with their reported inhibition follow.
Cc1ccc(Nc2nnc(S)s2)cc1F : 8%
O=C1Nc2ccccc2C(c2ccccc2)=N[C@H]1Cc1ccccc1 : 0%
O=C(CCCCN1C(=O)[C@H](CC(=O)NC(c2ccccc2)(c2ccccc2)c2ccccc2)N=C(c2ccccc2)c2ccccc21)NO : 52.3%
Nc1ccccc1NC(=O)c1ccc(-c2cn(CCc3ccsc3)nn2)cc1 : inactive
Nc1ccccc1NC(=O)c1ccc(CNC(=O)OCc2cccnc2)cc1 [ENTINOSTAT] : inactive

# per-item lookup of inhibition; items listed below
1. COC(=O)CCCNC(=O)[C@@H]1CC(=O)N2CCC[C@@H]2C(=O)N2CCC[C@H]2C(=O)N[C@@H](C(C)C)C(=O)N1
2. CC(C)(C)OC(=O)n1c(C[C@@H]2N=C(c3ccccc3)c3ccccc3N(CCCCC(=O)O)C2=O)cc2ccccc21
3. CC(C)(C)SC[C@H]1N=C(c2ccccc2)c2ccccc2N(CCCCC(=O)O)C1=O
4. O=C(CCCCN1C(=O)[C@H](Cc2ccc(O)cc2)N=C(c2ccccc2)c2ccccc21)NO
5. CC(C)(C)OC[C@@H]1N=C(c2ccccc2)c2ccccc2N(CCCCC(=O)O)C1=O
6. COC(=O)CCCCN1C(=O)[C@H](CC(=O)OC(C)(C)C)N=C(c2ccccc2)c2ccccc21
7. CC1=CC(C)(C)N=C(S)N1c1cccc2cc(S(=O)(=O)O)ccc12
8. COC(=O)CC1(C(=O)OC)Nc2cc(Cl)c(Cl)cc2S(=O)(=O)N1 (centres undefined)

["0%", "0%", "0%", "0%", "0%", "0%", "9%", "37%"]

Batch request: inhibition per item, same order as input.
1. CC(C)[C@@H]1NC(=O)[C@H]2CCCN2C(=O)[C@@H]2CCCN2C(=O)C[C@@H](C(=O)NCCCC(=O)NO)NC1=O
2. O=C(CC[C@H]1N=C(c2ccccc2)c2ccccc2NC1=O)NO
3. O=C(C[C@H]1N=C(c2ccccc2)c2ccccc2NC1=O)NO
4. CC(C)[C@@H]1NC(=O)[C@H]2CCCN2C(=O)[C@@H]2CCCN2C(=O)C[C@@H](C(=O)NCCC[S+](C)[O-])NC1=O (some centres undefined)
5. O=C(O)CC[C@H]1N=C(c2ccccc2)c2ccccc2NC1=O

["21 to 31.9%", "24%", "0%", "0%", "0%"]

Bench note: what inhibition did COC(=O)CCCCN1C(=O)[C@H](CC(C)C)N=C(c2ccccc2)c2ccccc21 show?
0%
